# credit: ChEMBL document CHEMBL1156236

Tested on: NCI-H460
Test: Cytotoxicity against human NCI-H460 cells
Type: functional
measurement_type: GI50 (µM)
Write it as a number; the unit µM goes unstated.

// solved cases for GI50 follow
# compound_structure_string, reading_unit, GI50
records = [
    ("COc1ccc(/C=N/Nc2ncnc3sc4c(c23)CCCC4)c(OC)c1", "µM", 29.5),
    ("NNc1ncnc2sc3c(c12)CCCC3", "µM", 9.6),
    ("COc1cccc(/C=N/Nc2ncnc3sc4c(c23)CCCC4)c1", "µM", 16.2),
]

Query: Request - read-out GI50 | tested on NCI-H460 | compound "C(=N\Nc1ncnc2sc3c(c12)CCCC3)/c1ccccc1"
Response: 18.2

Query: Moving on to the next compound: "Brc1ccccc1/C=N/Nc1ncnc2sc3c(c12)CCCC3"
Response: 7.7

Query: Moving on to the next compound: "C(=N\Nc1ncnc2sc3c(c12)CCCC3)/c1ccc2ccccc2c1"
Response: 20.8

Query: Moving on to the next compound: "C(=N\Nc1ncnc2sc3c(c12)CCCC3)/c1cccc2ccccc12"
Response: 19.9

Query: Moving on to the next compound: "C(=N\Nc1ncnc2sc3c(c12)CCCC3)/c1ccccn1"
Response: 0.4

Query: Moving on to the next compound: "CCC(CC)=NNc1ncnc2sc3c(c12)CCCC3"
Response: 15.2

* * *

Entries annotated with measured Ratio IC50
Experiment: Selectivity index, ratio of IC50 for BALB/c mouse macrophages to IC50 for Leishmania amazonensis MHOM/BR/76/LTB-012
Answer using only a numeral; do not append any unit.

// solved cases for Ratio IC50 follow
# compound_structure_string, Ratio IC50
rows = [
    ("C(=C\\c1ccccc1)/C=N/Nc1ncnc2sc3c(c12)CCCC3", 0.1),
    ("C(=N\\Nc1ncnc2sc3c(c12)CCCC3)/c1ccccc1", 0.6),
    ("Oc1ccc(/C=N/Nc2ncnc3sc4c(c23)CCCC4)cc1", 4.3),
]

Query: Data request, read-out Ratio IC50, for "CCC(CC)=NNc1ncnc2sc3c(c12)CCCC3"
Response: 8.5

Query: Moving on to the next compound: "c1ccc(C(=NNc2ncnc3sc4c(c23)CCCC4)c2ccccc2)cc1"
Response: 0.9

Query: Moving on to the next compound: "Clc1ccccc1/C=N/Nc1ncnc2sc3c(c12)CCCC3"
Response: 5

Query: Moving on to the next compound: "CC(C)c1ccc(/C=N/Nc2ncnc3sc4c(c23)CCCC4)cc1"
Response: 2.3

Query: Moving on to the next compound: "CC(C)(C)/C=N/Nc1ncnc2sc3c(c12)CCCC3"
Response: 1.6

Query: Moving on to the next compound: "COc1ccc(/C=N/Nc2ncnc3sc4c(c23)CCCC4)c(OC)c1"
Response: 4.3

Query: Moving on to the next compound: "N#Cc1ccc(/C=N/Nc2ncnc3sc4c(c23)CCCC4)cc1"
Response: 5

* * *

Test system: NCI-H460
Test: Cytotoxicity against human NCI-H460 cells
Assay type: functional
measurement_type: log10(GI50) (log10 of the value in µM)
Values are log10 of GI50 in µM.

// solved cases for log10(GI50) follow
# compound_structure_string, recorded_number
records = [
    ("C(=N\\Nc1ncnc2sc3c(c12)CCCC3)/c1ccco1", 0.85),
    ("Brc1ccc(/C=N/Nc2ncnc3sc4c(c23)CCCC4)cc1", 1.02),
    ("Clc1ccccc1/C=N/Nc1ncnc2sc3c(c12)CCCC3", 1.80),
    ("C/C(=N/Nc1ncnc2sc3c(c12)CCCC3)c1ccccc1", 1.20),
]

Query: Data request, read-out log10(GI50), for "C(=N\Nc1ncnc2sc3c(c12)CCCC3)/c1ccc[nH]1"
Response: 0.23

Query: Moving on to the next compound: "COc1cc(/C=N/Nc2ncnc3sc4c(c23)CCCC4)cc(OC)c1OC"
Response: 1.45

Query: Moving on to the next compound: "CC(C)(C)c1ccc(/C=N/Nc2ncnc3sc4c(c23)CCCC4)cc1"
Response: 0.81

Query: Moving on to the next compound: "Clc1ccc(/C=N/Nc2ncnc3sc4c(c23)CCCC4)cc1"
Response: 1.11

Query: Moving on to the next compound: "CC(C)(C)/C=N/Nc1ncnc2sc3c(c12)CCCC3"
Response: 1.39

Query: Moving on to the next compound: "C(=C\c1ccccc1)/C=N/Nc1ncnc2sc3c(c12)CCCC3"
Response: 0.32

Query: Moving on to the next compound: "FC(F)(F)c1ccc(/C=N/Nc2ncnc3sc4c(c23)CCCC4)cc1"
Response: 1.18

Query: Moving on to the next compound: "COc1ccc(/C=N/Nc2ncnc3sc4c(c23)CCCC4)cc1"
Response: 1.23

Query: Moving on to the next compound: "O=[N+]([O-])c1ccccc1/C=N/Nc1ncnc2sc3c(c12)CCCC3"
Response: 1.72

Query: Moving on to the next compound: "CC(C)=NNc1ncnc2sc3c(c12)CCCC3"
Response: 0.97

Query: Moving on to the next compound: "CC(C)c1ccc(/C=N/Nc2ncnc3sc4c(c23)CCCC4)cc1"
Response: 0.77

Query: Moving on to the next compound: "C=CCOc1cc(/C=N/Nc2ncnc3sc4c(c23)CCCC4)cc(OCC=C)c1Br"
Response: 0.49

Query: Moving on to the next compound: "O=c1[nH]cc(F)c(=O)[nH]1"
Response: 0.36

Query: Moving on to the next compound: "Cc1ccc(/C=N/Nc2ncnc3sc4c(c23)CCCC4)cc1"
Response: 2.12

Query: Moving on to the next compound: "Fc1ccc(/C=N/Nc2ncnc3sc4c(c23)CCCC4)cc1"
Response: 0.97

Query: Moving on to the next compound: "Oc1ccc(/C=N/Nc2ncnc3sc4c(c23)CCCC4)cc1"
Response: 1.17

Query: Moving on to the next compound: "FC(F)(F)c1ccccc1/C=N/Nc1ncnc2sc3c(c12)CCCC3"
Response: 0.73

Query: Moving on to the next compound: "CCc1ccc(/C=N/Nc2ncnc3sc4c(c23)CCCC4)cc1"
Response: 1.45
